Attribution: ChEMBL document CHEMBL5137026

Tested on: MDA-MB-468
Experiment: Induction of apoptosis in human MDA-MB-468 cells assessed as downregulation of […] measured after 24 hrs by SDS PAGE based Western blotting analysis
Format: functional, cell-based
Settings: dose 5-20 µM, DDE = dose-dependent effect, tested as the 2H-labelled form
Observed Property: Activity

Query: Missing value: Activity, MDA-MB-468, entry CC1=C(/C=C/C(C)=C/C=C/C(C)=C/C(=O)Nc2ccc(F)cc2)C(C)(C)CCC1n1ccnc1 (racemic; form 2) . Fill in?
Reply: Dde

Query: Missing value: Activity, MDA-MB-468, entry CC1=C(/C=C/C(C)=C/C=C/C(C)=C/C(=O)Nc2ccc(F)cc2)C(C)(C)CCC1n1ccnc1 (racemic; form 7) . Fill in?
Reply: Dde

Query: Missing value: Activity, MDA-MB-468, entry CC1=C(/C=C/C(C)=C/C=C/C(C)=C/C(=O)Nc2ccc(F)cc2)C(C)(C)CCC1n1ccnc1 (racemic; form 6) . Fill in?
Reply: Dde

Query: Missing value: Activity, MDA-MB-468, entry CC1=C(/C=C/C(C)=C/C=C/C(C)=C/C(=O)Nc2ccc(F)cc2)C(C)(C)CCC1n1ccnc1 (racemic; form 8) . Fill in?
Reply: Dde
